The values you see were collected from ChEMBL document CHEMBL4689842.

tested on: U2OS; test: Multiplex assay against U2OS; type: toxicity, cell-based; details: human, 48 h, 10 µM, compound concentration 10 uM, replicate 2
MEASUREMENT TYPE: Population Pyknosed Nuclei (%)
Mention the unit after the number when you answer.

CC(=O)c1cc(-c2cc(C(=O)NC3CC3)ccc2C)c2ncccn12
11%
C1=N/C2=N/c3ccc(OCCN4CCCC4)c(c3)COC/C=C\COCc3cccc(c3)C(=C1)N2
47%
Nc1ccc(C(=O)Nc2cccc(-c3nc(N4CCOCC4)c4oc5ncccc5c4n3)c2)cn1
26%
CCc1cc2c(cc1CC)CC(NC[C@H](O)c1ccc(O)c3[nH]c(=O)ccc13)C2 [INDACATEROL]
37%
CC(C)N1CCC(C)(C)c2cc(C#Cc3ccc(C(=O)O)cc3)ccc21
0%

Input line: Name the recorded Population Pyknosed Nuclei (%) for O=C(O)c1ccc2cc(-c3ccc(O)c(C45CC6CC(CC(C6)C4)C5)c3)ccc2c1 [O-DEMETHYLATED ADAPALENE] .
Output line: 14%

Input line: Record: CC(C)Oc1ccc(C(=O)N[C@H](CNC(=O)CN(C)C)Cc2ccc(-c3cn4cccc([C@H](C)O)c4n3)cc2)cc1Cl [GSK-923295A]
Output line: 46%

Input line: Record: Cc1nc(Cc2cccc(C(F)(F)F)c2)sc1-c1ccc(C(N)=O)nc1 [TP-024n]
Output line: 13%
